Assay: In vivo kinetics experiment (radioactivity distribution)
Set-up: species or system Wistar male rat
Conditions: rat, caudal vein, 30 min after administration
Each record here notes measured Radioactivity distribution Blood.

# COMPOUND, Radioactivity distribution Blood / % ID/g
rows = [
    ("Fc1cc2nc(-c3cncc(Cn4ccnc4)c3)n(CCC[18F])c2cc1Cl [[^18F] 500]", 0.10),
    ("[123I]c1ccc2nc(-c3cncc(Cn4ccnc4)c3)n(C3CC3)c2c1 [[^123I] 602]", 0.43),
    ("Fc1cc2nc(-c3cncc(Cn4ccnc4)c3)n(CC[18F])c2cc1Cl [[^18F] 100]", 0.08),
    ("FCCn1c(-c2cncc(Cn3ccnc3)c2)nc2cc(F)c([123I])cc21 [[^123I] 400]", 0.43),
    ("[123I]c1ccc2nc(-c3cncc(Cn4ccnn4)c3)n(C3CC3)c2c1 [[^123I] 603]", 0.10),
    ("Fc1cc2nc(-c3cncc(Cn4ccnc4)c3)n(CC[18F])c2cc1Br [[^18F] 200]", 0.16),
]

* * *

Test: In vivo kinetics experiment (radioactivity distribution)
Parameters: species or system Wistar male rat
Conditions: 60 min after administration; rat i.v.; mean ± SD
Binarize Radioactivity distribution Large intestine at 0.2 % ID/g; below is True, at or above is False.

# MOLECULE, CLASS LABEL
records = [
    ("CCn1c(-c2cncc(Cn3ccnc3)c2)nc2ccc([123I])cc21 [[^123I] 608]", "True"),
    ("COC(=O)c1cncn1[C@H](C)c1ccc(I)cc1 [[^123I] IMTO, (R)-[^123I]iodometomidate, reference compound]", "True"),
    ("FCCn1c(-c2cncc(Cn3ccnc3)c2)nc2ccc([123I])cc21 [[^123I] 604]", "False"),
    ("COc1cc([123I])cc2c1nc(-c1cncc(Cn3ccnc3)c1)n2C1CC1 [[^123I] 609]", "False"),
    ("FCCn1c(-c2cncc(Cn3cncc3[123I])c2)nc2cc(F)c(Cl)cc21 [[^123I] 610]", "True"),
    ("CC(C)n1c(-c2cncc(Cn3ccnc3)c2)nc2ccc([123I])cc21 [[^123I] 606]", "False"),
    ("Cn1c(-c2cncc(Cn3ccnc3)c2)nc2ccc([123I])cc21 [[^123I] 607]", "True"),
    ("Fc1cc2nc(-c3cncc(Cn4ccnc4)c3)n(Cc3ccc([123I])cc3)c2cc1Cl [[^123I] 605]", "True"),
]

* * *

Each record here notes measured Adrenal gland/blood ratio of radioactivity accumulation.
Test: In vivo kinetics experiment (radioactivity distribution)
Set-up: species or system Wistar male rat
Conditions: rat, caudal vein, 60 min after administration
RECORDED ENDPOINT: Adrenal gland/blood ratio of radioactivity accumulation

# COMPOUND, READOUT NUMBER
records = [
    ("Fc1cc2nc(-c3cncc(Cn4ccnc4)c3)n(CC[18F])c2cc1Br [[^18F] 200]", 168.33),
    ("[123I]c1ccc2nc(-c3cncc(Cn4ccnc4)c3)n(C3CC3)c2c1 [[^123I] 602]", 29.41),
    ("Fc1cc2nc(-c3cncc(Cn4ccnc4)c3)n(CCC[18F])c2cc1Cl [[^18F] 500]", 214.22),
    ("[123I]c1ccc2nc(-c3cncc(Cn4ccnn4)c3)n(C3CC3)c2c1 [[^123I] 603]", 235.46),
    ("FCCn1c(-c2cncc(Cn3ccnc3)c2)nc2cc(F)c([123I])cc21 [[^123I] 400]", 29.41),
    ("Fc1cc2nc(-c3cncc(Cn4ccnc4)c3)n(CC[18F])c2cc1Cl [[^18F] 100]", 247.32),
]

* * *

Each record here notes measured Radioactivity distribution Bladder (including urine).
Assay: In vivo kinetics experiment (radioactivity distribution)
Set-up: species or system Wistar male rat
Settings: 30 min after administration; rat i.v.; mean ± SD
RECORDED ENDPOINT: Radioactivity distribution Bladder (including urine) (% ID/g)

# COMPOUND, UNITS LABEL, READOUT NUMBER
rows = [
    ("CCn1c(-c2cncc(Cn3ccnc3)c2)nc2ccc([123I])cc21 [[^123I] 608]", "% ID/g", 2.70),
    ("COC(=O)c1cncn1[C@H](C)c1ccc(I)cc1 [[^123I] IMTO, (R)-[^123I]iodometomidate, reference compound]", "% ID/g", 0.39),
    ("FCCn1c(-c2cncc(Cn3ccnc3)c2)nc2ccc([123I])cc21 [[^123I] 604]", "% ID/g", 1.13),
    ("CC(C)n1c(-c2cncc(Cn3ccnc3)c2)nc2ccc([123I])cc21 [[^123I] 606]", "% ID/g", 1.17),
    ("Cn1c(-c2cncc(Cn3ccnc3)c2)nc2ccc([123I])cc21 [[^123I] 607]", "% ID/g", 2.79),
    ("COc1cc([123I])cc2c1nc(-c1cncc(Cn3ccnc3)c1)n2C1CC1 [[^123I] 609]", "% ID/g", 0.80),
    ("Fc1cc2nc(-c3cncc(Cn4ccnc4)c3)n(Cc3ccc([123I])cc3)c2cc1Cl [[^123I] 605]", "% ID/g", 0.15),
    ("FCCn1c(-c2cncc(Cn3cncc3[123I])c2)nc2cc(F)c(Cl)cc21 [[^123I] 610]", "% ID/g", 0.28),
]

* * *

Test: In vivo kinetics experiment (radioactivity distribution)
Parameters: species or system Wistar male rat
Conditions: rat, caudal vein, 60 min after administration
Each record here notes measured Radioactivity distribution Heart.

# COMPOUND, Radioactivity distribution Heart
rows = [
    ("FCCn1c(-c2cncc(Cn3ccnc3)c2)nc2cc(F)c([123I])cc21 [[^123I] 400]", "0.35 ± 0.03 % ID/g"),
    ("[123I]c1ccc2nc(-c3cncc(Cn4ccnn4)c3)n(C3CC3)c2c1 [[^123I] 603]", "0.56 ± 0.01 % ID/g"),
    ("Fc1cc2nc(-c3cncc(Cn4ccnc4)c3)n(CC[18F])c2cc1Br [[^18F] 200]", "0.27 ± 0.02 % ID/g"),
    ("Fc1cc2nc(-c3cncc(Cn4ccnc4)c3)n(CC[18F])c2cc1Cl [[^18F] 100]", "0.26 ± 0.03 % ID/g"),
    ("[123I]c1ccc2nc(-c3cncc(Cn4ccnc4)c3)n(C3CC3)c2c1 [[^123I] 602]", "0.35 ± 0.03 % ID/g"),
    ("Fc1cc2nc(-c3cncc(Cn4ccnc4)c3)n(CCC[18F])c2cc1Cl [[^18F] 500]", "0.24 ± 0.04 % ID/g"),
]

* * *

Assay: In vivo kinetics experiment (radioactivity distribution)
Design: species or system Wistar male rat
Settings: rat, caudal vein, 30 min after administration

# MOLECULE, Radioactivity distribution Fat
measured = [
    ("FCCn1c(-c2cncc(Cn3ccnc3)c2)nc2cc(F)c([123I])cc21 [[^123I] 400]", "0.12 % ID/g"),
    ("[123I]c1ccc2nc(-c3cncc(Cn4ccnc4)c3)n(C3CC3)c2c1 [[^123I] 602]", "0.12 ± 0.04 % ID/g"),
    ("[123I]c1ccc2nc(-c3cncc(Cn4ccnn4)c3)n(C3CC3)c2c1 [[^123I] 603]", "0.12 ± 0.03 % ID/g"),
    ("Fc1cc2nc(-c3cncc(Cn4ccnc4)c3)n(CC[18F])c2cc1Br [[^18F] 200]", "0.06 ± 0.02 % ID/g"),
    ("Fc1cc2nc(-c3cncc(Cn4ccnc4)c3)n(CC[18F])c2cc1Cl [[^18F] 100]", "0.07 ± 0.02 % ID/g"),
    ("Fc1cc2nc(-c3cncc(Cn4ccnc4)c3)n(CCC[18F])c2cc1Cl [[^18F] 500]", "0.07 ± 0.02 % ID/g"),
]

* * *

Experiment: Plasma stability evaluation (TLC analysis)
Assay type: in vitro ADME
Conditions: 37° C., 60 minutes, TLC analysis
Binarize Radiochemical purity after incubation in human plasma at 90%; below is met, at or above is not met.

# COMPOUND, CLASS LABEL
records = [
    ("[123I]c1ccc2nc(-c3cncc(Cn4ccnn4)c3)n(C3CC3)c2c1 [[^123I] 603]", "not met"),
    ("Cn1c(-c2cncc(Cn3ccnc3)c2)nc2ccc([123I])cc21 [[^123I] 607]", "met"),
    ("FCCn1c(-c2cncc(Cn3ccnc3)c2)nc2ccc([123I])cc21 [[^123I] 604]", "met"),
    ("Fc1cc2nc(-c3cncc(Cn4ccnc4)c3)n(CC[18F])c2cc1Cl [[^18F] 100]", "not met"),
    ("[123I]c1ccc2nc(-c3cncc(Cn4ccnc4)c3)n(C3CC3)c2c1 [[^123I] 602]", "met"),
    ("COc1cc([123I])cc2c1nc(-c1cncc(Cn3ccnc3)c1)n2C1CC1 [[^123I] 609]", "met"),
]
